# Test system: McpC ligand-binding domain (Salmonella Typhimurium SL1344)
# TEST METHOD NOTES: protein melting temperature (Tm) in presence of compound (degrees C); higher = more thermal stabilisation (possible ligand binding)
# ASSAY SETUP: Biolog plate: PM02A; compound stock concentration: 10-20 mM, 2 uL in 10 uL reaction
RECORDED ENDPOINT: protein melting temperature

COMPOUND: O=C[C@H](O)[C@@H](O)[C@H](O)[C@H](O)CO[C@@H]1O[C@H](CO)[C@@H](O)[C@H](O)[C@H]1O [Gentiobiose]
protein melting temperature: 44.5
//
COMPOUND: CC(=O)C(C)=O [2,3-Butanedione]
protein melting temperature: 43.9
//
COMPOUND: NCCCC(=O)O [g-Amino-N-Butyric acid]
protein melting temperature: 44.4
//
COMPOUND: C/C(=C/C(=O)O)C(=O)O [Citraconic acid]
protein melting temperature: 43.7
//
COMPOUND: NCC(O)c1ccc(O)cc1 (racemic) [D,L-Octopamine]
protein melting temperature: 43.9
//
COMPOUND: CC(=O)N[C@H]1[C@H]([C@H](O)[C@H](O)CO)OC(O)(C(=O)O)C[C@@H]1O (some centres undefined) [N-Acetyl-Neuraminic acid]
protein melting temperature: 44.4
//
COMPOUND: OC[C@H]1O[C@@](CO)(O[C@H]2O[C@H](CO)[C@@H](O)[C@H](O)[C@H]2O)[C@@H](O[C@H]2O[C@H](CO)[C@@H](O)[C@H](O)[C@H]2O)[C@@H]1O [D-Melezitose]
protein melting temperature: 44.5
//
COMPOUND: O=C(O)[C@@H]1C[C@@H](O)CN1 [Hydroxy-L-Proline]
protein melting temperature: 44.2
//
COMPOUND: OC[C@H](O)C(O)[C@@H](O)CO [L-Arabitol]
protein melting temperature: 43.8
//
COMPOUND: CO[C@H]1O[C@H](CO)[C@@H](O)[C@H](O)[C@H]1O [a-Methyl-D-Glucoside]
protein melting temperature: 44.2
//
COMPOUND: OC[C@H]1O[C@@H](O[C@H]2[C@H](O)[C@@H](O)[C@H](O[C@H]3[C@H](O)[C@H](O)[C@H](O[C@@H]4[C@H](O)[C@H](O)[C@H](O)O[C@@H]4CO)O[C@@H]3CO)O[C@@H]2CO)[C@@H](O)[C@@H](O)[C@@H]1O [Mannan]
protein melting temperature: 44.8
//
COMPOUND: CC[C@H](C)[C@H](N)C(=O)O [L-Isoleucine]
protein melting temperature: 44.3
//
COMPOUND: CO[C@@H]1O[C@H](CO)[C@H](O)[C@H](O)[C@H]1O [b-Methyl-D-Galactoside]
protein melting temperature: 43.7
//
COMPOUND: OC[C@@]12OC[C@@H](O1)[C@@H](O)[C@@H](O)[C@@H]2O [Sedoheptulosan]
protein melting temperature: 44.3
//
COMPOUND: OC[C@H]1O[C@H](OC[C@H]2O[C@H](O[C@H]3[C@H](O)[C@@H](O)[C@@H](O)O[C@@H]3CO)[C@H](O)[C@@H](O)[C@@H]2O[C@H]2O[C@H](CO)[C@@H](O)[C@H](O)[C@H]2O)[C@H](O)[C@@H](O)[C@@H]1O [Glycogen]
protein melting temperature: 44.8
//
COMPOUND: C[C@@H](O)[C@H](O)[C@H](O)[C@@H](O)C=O [D-Fucose]
protein melting temperature: 43.3
//
COMPOUND: N=C(N)NCCC[C@H](N)C(=O)O [L-Arginine]
protein melting temperature: 44.2
//
COMPOUND: OC[C@H]1O[C@H](OC[C@H]2O[C@H](OC[C@H]3O[C@H](O[C@]4(CO)O[C@H](CO)[C@@H](O)[C@@H]4O)[C@H](O)[C@@H](O)[C@@H]3O)[C@H](O)[C@@H](O)[C@H]2O)[C@H](O)[C@@H](O)[C@H]1O [Stachyose]
protein melting temperature: 44.5
//
COMPOUND: O=C(O)CCCCCCCCC(=O)O [Sebacic acid]
protein melting temperature: 44.8
//
COMPOUND: NCC(=O)O [Glycine]
protein melting temperature: 44.4
//
COMPOUND: CO[C@H]1O[C@H](CO)[C@@H](O)[C@H](O)[C@@H]1O [a-Methyl-D-Mannoside]
protein melting temperature: 44.9
//
COMPOUND: N#C[C@H](O[C@@H]1O[C@H](CO[C@@H]2O[C@H](CO)[C@@H](O)[C@H](O)[C@H]2O)[C@@H](O)[C@H](O)[C@H]1O)c1ccccc1 [Amygdalin]
protein melting temperature: 44.3
//
COMPOUND: OC[C@H]1OC(O[C@H]2[C@H](O)[C@@H](O)C(O[C@H]3[C@H](O)[C@@H](O)[C@@H](O)O[C@@H]3CO)O[C@@H]2CO)[C@H](O)[C@@H](O)[C@@H]1O (some centres undefined) [Dextrin]
protein melting temperature: 44
//
COMPOUND: C[C@@H](O)CC(=O)O [b-Hydroxybutyric acid]
protein melting temperature: 44.6
//
COMPOUND: OC[C@@H](O)[C@@H](O[C@@H]1O[C@H](CO)[C@H](O)[C@H](O)[C@H]1O)[C@H](O)[C@@H](O)CO [D-Lactitol]
protein melting temperature: 44.7
//
COMPOUND: O=C(O)[C@H](O)[C@@H](O)[C@H](O)[C@H](O)CO[C@H]1O[C@H](CO)[C@H](O)[C@H](O)[C@H]1O [Melibionic acid]
protein melting temperature: 44.7
//
COMPOUND: NCCCCN [Putrescine]
protein melting temperature: 43.7
//
COMPOUND: CC(O)(CC(=O)O)C(=O)O (centres undefined) [Citramalic acid]
protein melting temperature: 44.1
//
COMPOUND: OC[C@@H](O)[C@@H](O[C@H]1O[C@H](CO)[C@@H](O)[C@H](O)[C@H]1O)[C@H](O)[C@@H](O)CO [Maltitol]
protein melting temperature: 44.5
